Tested on: P1 Initial (T-ALL xenograft cells from diagnosis)
Assay: normalised number of viable cells after treatment (fraction of control); higher = more viable cells (less drug effect)
Settings: 1 nM
Measured quantity: normalised number of viable cells

Cc1c(-c2c(-c3ccc(F)o3)sc3ncnc(O[C@H](Cc4ccccc4OCc4ccnn4CC(F)(F)F)C(=O)O)c23)ccc(OCCN2CCN(C)CC2)c1Cl : 1.05

For every item below, please supply its normalised number of viable cells.
1. Cc1c(-c2ccc(N3CCc4cccc(C(=O)Nc5nc6ccccc6s5)c4C3)nc2C(=O)O)cnn1CC12CC3CC(CC(C3)C1)C2
2. CC1(C)CCC(CN2CCN(c3ccc(C(=O)NS(=O)(=O)c4ccc(NCC5CCOCC5)c([N+](=O)[O-])c4)c(Oc4cnc5[nH]ccc5c4)c3)CC2)=C(c2ccc(Cl)cc2)C1 [Venetoclax]
3. Nc1ccn([C@@H]2O[C@H](CO)[C@@H](O)[C@@H]2O)c(=O)n1 [Cytarabine]

Marked response:
1. 0.741
2. 0.841
3. 0.83
